Tested on: Erythrocyte
assay.info: Hemolytic activity in BALB/C mouse erythrocytes incubated for 1 hr by absorbance method
Format: ADME, cell-based
Where a SMILES comes first, the peptide text is derived from it.

>  <compound>
CC[C@H](C)[C@H](NC(=O)[C@H](CCCNC(=N)N)NC(=O)[C@H](CCCNC(=N)N)NC(=O)[C@H](Cc1ccccc1)NC(=O)[C@H](Cc1ccccc1)NC(=O)CN)C(=O)N[C@@H](CCCCN)C(=O)N[C@H](C(=O)N[C@@H](Cc1ccccc1)C(=O)N[C@@H](Cc1ccccc1)C(N)=O)[C@@H](C)O (H-GFFRRIKTFF-NH2)

>  <tested.target>
Erythrocyte

>  <MHC10>
>= 512 uM

$$$$
>  <compound>
CC[C@H](C)[C@H](NC(=O)[C@H](CCCNC(=N)N)NC(=O)[C@H](CCCCN)NC(=O)[C@H](Cc1ccccc1)NC(=O)[C@H](Cc1ccccc1)NC(=O)CN)C(=O)N[C@@H](CCCNC(=N)N)C(=O)N[C@H](C(=O)N[C@@H](Cc1ccccc1)C(=O)N[C@@H](Cc1ccccc1)C(N)=O)[C@@H](C)O (H-GFFKRIRTFF-NH2)

>  <tested.target>
Erythrocyte

>  <MHC10>
>= 512 uM

$$$$
>  <compound>
CC[C@H](C)[C@H](NC(=O)[C@H](CCCNC(=N)N)NC(=O)[C@H](CCCNC(=N)N)NC(=O)[C@H](Cc1ccccc1)NC(=O)[C@H](Cc1ccccc1)NC(=O)CN)C(=O)N[C@@H](CCCNC(=N)N)C(=O)N[C@H](C(=O)N[C@@H](Cc1ccccc1)C(=O)N[C@@H](Cc1ccccc1)C(N)=O)[C@@H](C)O (H-GFFRRIRTFF-NH2)

>  <tested.target>
Erythrocyte

>  <MHC10>
>= 512 uM

$$$$

----------
Test system: Enterococcus faecalis
assay.info: Antibacterial activity against Enterococcus faecalis ATCC 29212 incubated for 18 hrs by CLSI based broth dilution method
Assay type: functional
Where a SMILES comes first, the peptide text is derived from it.

>  <molecule>
C[C@H](NC(=O)[C@H](C)NC(=O)[C@@H](NC(=O)[C@H](CCCCN)NC(=O)[C@H](C)NC(=O)[C@H](CCCNC(=N)N)NC(=O)[C@H](CCCCN)NC(=O)[C@H](C)NC(=O)[C@H](C)NC(=O)CN)[C@@H](C)O)C(N)=O (H-GAAKRAKTAA-NH2)

>  <unit.of.measurement>
µM

>  <censoring.operator>
≥

>  <MIC>
512

$$$$
>  <molecule>
CC[C@H](C)[C@H](NC(=O)[C@H](CCCNC(=N)N)NC(=O)[C@H](CCCNC(=N)N)NC(=O)[C@H](Cc1ccccc1)NC(=O)[C@H](Cc1ccccc1)NC(=O)CN)C(=O)N[C@@H](CCCCN)C(=O)N[C@H](C(=O)N[C@@H](Cc1ccccc1)C(=O)N[C@@H](Cc1ccccc1)C(N)=O)[C@@H](C)O (H-GFFRRIKTFF-NH2)

>  <unit.of.measurement>
µM

>  <censoring.operator>
=

>  <MIC>
64

$$$$
>  <molecule>
CC[C@H](C)[C@H](NC(=O)[C@H](CCCNC(=N)N)NC(=O)[C@H](CCCCN)NC(=O)[C@H](CC(C)C)NC(=O)[C@H](CC(C)C)NC(=O)CN)C(=O)N[C@@H](CCCCN)C(=O)N[C@H](C(=O)N[C@@H](CC(C)C)C(=O)N[C@@H](CC(C)C)C(N)=O)[C@@H](C)O [ANOPLIN] (H-GLLKRIKTLL-NH2)

>  <unit.of.measurement>
µM

>  <censoring.operator>
≥

>  <MIC>
512

$$$$
>  <molecule>
CN[C@H](CC(C)C)C(=O)N[C@H]1C(=O)N[C@@H](CC(N)=O)C(=O)N[C@H]2C(=O)N[C@H]3C(=O)N[C@H](C(=O)N[C@H](C(=O)O)c4cc(O)cc(O)c4-c4cc3ccc4O)[C@H](O)c3ccc(c(Cl)c3)Oc3cc2cc(c3O[C@@H]2O[C@H](CO)[C@@H](O)[C@H](O)[C@H]2O[C@H]2C[C@](C)(N)[C@H](O)[C@H](C)O2)Oc2ccc(cc2Cl)[C@H]1O

>  <unit.of.measurement>
µM

>  <censoring.operator>
<

>  <MIC>
1

$$$$
>  <molecule>
CN[C@@H]1[C@H](O[C@H]2[C@H](O[C@H]3[C@H](O)[C@@H](O)[C@H](N=C(N)N)[C@@H](O)[C@@H]3N=C(N)N)O[C@@H](C)[C@]2(O)C=O)O[C@@H](CO)[C@H](O)[C@H]1O

>  <unit.of.measurement>
µM

>  <censoring.operator>
=

>  <MIC>
16

$$$$
>  <molecule>
CC[C@H](C)[C@H](NC(=O)[C@H](CCCNC(=N)N)NC(=O)[C@H](CCCCN)NC(=O)[C@H](Cc1c[nH]c2ccccc12)NC(=O)[C@H](Cc1c[nH]c2ccccc12)NC(=O)CN)C(=O)N[C@@H](CCCCN)C(=O)N[C@H](C(=O)N[C@@H](Cc1c[nH]c2ccccc12)C(=O)N[C@@H](Cc1c[nH]c2ccccc12)C(N)=O)[C@@H](C)O (H-GWWKRIKTWW-NH2)

>  <unit.of.measurement>
µM

>  <censoring.operator>
=

>  <MIC>
16

$$$$
>  <molecule>
CC(C)C[C@H](NC(=O)[C@H](Cc1ccccc1)NC(=O)CN)C(=O)N[C@@H](CCCCN)C(=O)N[C@@H](CCCNC(=N)N)C(=O)N[C@@H](Cc1ccccc1)C(=O)N[C@@H](CCCCN)C(=O)N[C@H](C(=O)N[C@@H](CC(C)C)C(=O)N[C@@H](Cc1ccccc1)C(N)=O)[C@@H](C)O (H-GFLKRFKTLF-NH2)

>  <unit.of.measurement>
µM

>  <censoring.operator>
=

>  <MIC>
128

$$$$
